Cited source: paper PMC2808332

molecular target: T1, NEMO (NF-κB essential modulator), tag-free, biotinylated (human, UniProt Q9Y6K9 1-419, biotin (in vitro biotinylation kit, biotin:NEMO molar ratio 9:1)); experiment: peptide or protein array; Invitrogen Protoarray v4.0, about 8,400 human proteins spotted on nitrocellulose-coated glass slides; 10 µg biotinylated tag-free NEMO in 120 µl probing buffer (PBS, 0.5 mM DTT, 5 mM MgCl2, 5% glycerol, 0.05% Triton X-100), 4°C, 1.5 h; bound NEMO detected with labelled streptavidin; hits Z-score > 3, hits of the biotin-GST control array subtracted; settings: both partners purified
T1 construct: NEMO, NF-κB essential modulator, human, 48 kDa; also called biotinylated NEMO; biotin-NEMO; source: E. coli BL21(DE3), purified (glutathione sepharose), GST removed with thrombin, biotinylated in vitro

binder	binding result
Adenine phosphoribosyltransferase (natural protein, human, UniProt P07741-1 1-180, looked up, Adenine phosphoribosyltransferase, human; also called APRT; source: insect cell/baculovirus, purified, spotted (Invitrogen Protoarray v4.0)) MADSELQLVEQRIRSFPDFPTPGVVFRDISPVLKDPASFRAAIGLLARHLKATHGGRIDYIAGLDSRGFLFGPSLAQELGLGCVLIRKRGKLPGPTLWASYSLEYGKAELEIQKDALEPGQRVVVVDDLLATGGTMNAACELLGRLQAEVLECVSLVELTSLKGREKLAPVPFFSLLQYE	binds
G protein, γ-transducing activity polypeptide 1 (natural protein, human, UniProt P63211 1-74, looked up, G protein, γ-transducing activity polypeptide 1, human; also called GNGT1; source: insect cell/baculovirus, purified, spotted (Invitrogen Protoarray v4.0)) MPVINIEDLTEKDKLKMEVDQLKKEVTLERMLVSKCCEEVRDYVEERSGEDPLVKGIPEDKNPFKELKGGCVIS	binds
Leupaxin (natural protein, human, UniProt O60711-1 1-386, looked up, Leupaxin, human; also called LPXN; source: insect cell/baculovirus, purified, spotted (Invitrogen Protoarray v4.0)) MEELDALLEELERSTLQDSDEYSNPAPLPLDQHSRKETNLDETSEILSIQDNTSPLPAQLVYTTNIQELNVYSEAQEPKESPPPSKTSAAAQLDELMAHLTEMQAKVAVRADAGKKHLPDKQDHKASLDSMLGGLEQELQDLGIATVPKGHCASCQKPIAGKVIHALGQSWHPEHFVCTHCKEEIGSSPFFERSGLAYCPNDYHQLFSPRCAYCAAPILDKVLTAMNQTWHPEHFFCSHCGEVFGAEGFHEKDKKPYCRKDFLAMFSPKCGGCNRPVLENYLSAMDTVWHPECFVCGDCFTSFSTGSFFELDGRPFCELHYHHRRGTLCHGCGQPITGRCISAMGYKFHPEHFVCAFCLTQLSKGIFREQNDKTYCQPCFNKLFPL	binds
